Biological target: Prostaglandin G/H synthase 2 (Homo sapiens, UniProt P35354)
Sequence (P35354 whole entry): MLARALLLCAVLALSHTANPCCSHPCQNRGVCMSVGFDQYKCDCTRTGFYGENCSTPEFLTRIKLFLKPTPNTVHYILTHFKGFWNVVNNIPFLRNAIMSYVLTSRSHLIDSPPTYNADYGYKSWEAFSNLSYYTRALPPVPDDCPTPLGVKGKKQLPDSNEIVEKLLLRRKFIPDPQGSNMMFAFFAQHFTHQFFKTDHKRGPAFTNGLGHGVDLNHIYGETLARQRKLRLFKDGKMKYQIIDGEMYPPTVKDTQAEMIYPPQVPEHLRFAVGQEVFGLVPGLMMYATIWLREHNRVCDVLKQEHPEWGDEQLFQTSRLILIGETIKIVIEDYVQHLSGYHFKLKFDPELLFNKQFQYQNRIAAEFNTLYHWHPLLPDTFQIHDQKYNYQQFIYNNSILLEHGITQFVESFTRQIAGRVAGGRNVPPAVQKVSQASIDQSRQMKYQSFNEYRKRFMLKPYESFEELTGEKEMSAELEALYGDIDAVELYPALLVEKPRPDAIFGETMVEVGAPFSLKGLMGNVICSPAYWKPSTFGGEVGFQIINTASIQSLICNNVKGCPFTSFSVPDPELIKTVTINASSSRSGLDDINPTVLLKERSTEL
Experiment: Inhibition of COX2 expressed in CHO cells assessed as inhibition of arachidonic acid-stimulated PGE2 production by enzyme immunoassay
Attribute: IC50
observable: IC50 (nM)

query_smiles	lt_gt_eq	numeric_readout
COC1(c2cc(F)cc(OCc3ccc4c(ccc(=O)n4C)c3)c2)CCOCC1	>	100000
COC1(c2cc(F)cc(OCc3cc(-c4ccccc4)n(-c4ccc(Cl)c(Cl)c4)n3)c2)CCOCC1	=	700
COc1cc(OC)cc(OCc2cc(-c3ccccc3)n(-c3ccc(S(C)(=O)=O)cc3)n2)c1	=	870
CS(=O)(=O)c1ccc(-n2nc(COc3cccc([N+](=O)[O-])c3)cc2-c2ccccc2)cc1	=	740
COC1(c2cc(F)cc(OCc3cc(-c4ccccc4)n(-c4ccc(F)cc4)n3)c2)CCOCC1	=	960
COc1ccc(-n2nc(COc3cc(F)cc(C4(OC)CCOCC4)c3)cc2-c2ccccc2)cc1	=	300
CCOc1cccc(OCc2cc(-c3ccccc3)n(-c3ccc(S(C)(=O)=O)cc3)n2)c1	=	900
COC1(c2cc(F)cc(OCc3cc(-c4ccccc4)n(-c4ccc(OC(F)(F)F)cc4)n3)c2)CCOCC1	=	820
CS(=O)(=O)c1ccc(-n2nc(COc3ccc4c(c3)OCO4)cc2-c2ccccc2)cc1	=	450

Where do the numbers come from? From ChEMBL document CHEMBL1149247.
